# STUDY SYSTEM: human SGLT2 (Homo sapiens, UniProt P31639)
# Construct: expressed in transfected cells
# Sequence (P31639 1-672): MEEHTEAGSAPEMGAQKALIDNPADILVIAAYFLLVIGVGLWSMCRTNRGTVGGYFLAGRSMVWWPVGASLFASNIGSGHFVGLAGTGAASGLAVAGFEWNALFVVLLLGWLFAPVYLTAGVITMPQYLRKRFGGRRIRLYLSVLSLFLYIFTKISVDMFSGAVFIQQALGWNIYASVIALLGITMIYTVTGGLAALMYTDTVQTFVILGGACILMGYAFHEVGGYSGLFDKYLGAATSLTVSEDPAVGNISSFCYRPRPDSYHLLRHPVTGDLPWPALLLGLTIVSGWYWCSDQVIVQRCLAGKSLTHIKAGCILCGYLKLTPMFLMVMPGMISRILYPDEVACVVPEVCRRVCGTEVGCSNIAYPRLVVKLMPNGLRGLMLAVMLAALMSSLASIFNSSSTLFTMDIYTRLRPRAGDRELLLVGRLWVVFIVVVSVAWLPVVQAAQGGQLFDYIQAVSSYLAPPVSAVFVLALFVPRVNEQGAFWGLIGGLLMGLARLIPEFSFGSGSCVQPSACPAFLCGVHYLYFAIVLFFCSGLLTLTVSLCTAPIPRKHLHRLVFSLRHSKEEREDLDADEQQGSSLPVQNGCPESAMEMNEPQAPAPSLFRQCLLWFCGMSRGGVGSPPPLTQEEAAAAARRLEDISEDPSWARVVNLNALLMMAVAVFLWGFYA
# TEST PROTOCOL: SGLT2 in vitro assay: Na-dependent 14C-AMG uptake in CHO-K1 cells stably expressing human SGLT2
# Type: cell-based
# ASSAY SETUP: @ 0.3 μM; CHO-K1 cells stably expressing human SGLT2; 14C-AMG uptake
Decide using SGLT2 % Inh @ 0.3 μM: a value greater than or equal to 70% is MET, a smaller one is NOT MET.

CCc1ccc(Cc2cc([C@@H]3O[C@H](CO)C(F)(F)[C@H](O)[C@H]3O)c(OC)cc2Cl)cc1 [Compound 135] :: MET
CCc1ccc(Cc2cc([C@@H]3O[C@H](CO)C(F)(F)[C@H](O)[C@H]3O)c(OC)c3c2OCC3)cc1 [Compound 38] :: NOT MET
COc1cc(OC)c([C@@H]2O[C@H](CO)C(F)(F)[C@H](O)[C@H]2O)cc1Cc1cc2c(s1)CCN(C(C)=O)C2 [Compound 77] :: NOT MET

Test whether the compound COc1cc(Cl)c(Cc2ccc([C@@H]3CCOC3)cc2)cc1[C@@H]1O[C@H](CO)C(F)(F)[C@H](O)[C@H]1O [Compound 50] records SGLT2 % Inh @ 0.3 μM of 70% or higher.
MET

Can CCc1ccc(Cc2cc([C@@H]3O[C@H](CO)C(F)(F)[C@H](O)[C@H]3O)c(O)cc2C#N)cc1 [Compound 175] be said to have SGLT2 % Inh @ 0.3 μM at or above 70%?
MET

---

# STUDY SYSTEM: human SGLT2 (Homo sapiens)
# Construct: expressed in transfected cells
# Sequence (P31639 1-672): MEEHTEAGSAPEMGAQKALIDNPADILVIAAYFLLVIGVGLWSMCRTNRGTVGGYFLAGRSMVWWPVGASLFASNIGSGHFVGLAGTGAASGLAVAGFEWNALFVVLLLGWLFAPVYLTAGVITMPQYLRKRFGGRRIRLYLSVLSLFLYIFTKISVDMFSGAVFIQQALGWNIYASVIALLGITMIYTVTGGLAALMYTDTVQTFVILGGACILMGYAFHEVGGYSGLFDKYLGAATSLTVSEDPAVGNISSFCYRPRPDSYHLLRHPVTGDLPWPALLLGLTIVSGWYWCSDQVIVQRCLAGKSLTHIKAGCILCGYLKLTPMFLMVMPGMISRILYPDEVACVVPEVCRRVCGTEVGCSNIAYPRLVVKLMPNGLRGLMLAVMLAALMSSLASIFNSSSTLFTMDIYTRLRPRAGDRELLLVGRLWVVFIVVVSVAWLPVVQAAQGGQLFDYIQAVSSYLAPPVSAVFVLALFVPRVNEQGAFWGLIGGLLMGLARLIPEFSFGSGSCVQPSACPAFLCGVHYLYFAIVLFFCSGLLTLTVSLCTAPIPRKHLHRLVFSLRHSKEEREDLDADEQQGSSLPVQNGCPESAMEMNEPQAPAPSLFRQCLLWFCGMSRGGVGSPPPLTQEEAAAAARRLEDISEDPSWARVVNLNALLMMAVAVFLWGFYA
# TEST PROTOCOL: SGLT2 in vitro assay: Na-dependent 14C-AMG uptake in CHO-K1 cells stably expressing human SGLT2
# Format: cell-based
# ASSAY SETUP: @ 0.3 μM; CHO-K1 cells stably expressing human SGLT2; 14C-AMG uptake
# Method: Biological Example 1: SGLT1 and SGLT2 In Vitro Assays The ability of the compounds of formula (I) of the present invention to treat an SGLT-mediated condition was determined using the following procedures: […] Inhibition of SGLT1 and SGLT2 activity was assessed in CHO K1 cells stably expressing either human SGLT1 or SGLT2, using the SGLT specific glucose analog methyl-glucopyranoside (Sigma Catalog No. M-9376). […] Plates were counted in a TopCount (Packard, Meriden, Conn.) […]
OUTCOME MEASURE: SGLT2 % Inh @ 0.3 μM (%)
Answers are plain numbers, in %.

Some compounds with recorded SGLT2 % Inh @ 0.3 μM:
COC(=O)N1CCc2sc(Cc3cc([C@@H]4O[C@H](CO)C(F)(F)[C@H](O)[C@H]4O)c(OC)cc3OC)cc2C1 :: 52.3
COc1cc(Cl)c(Cc2ccc(OC(F)(F)F)cc2)cc1[C@@H]1O[C@H](CO)C(F)(F)[C@H](O)[C@H]1O :: 92.5
COc1cc(C)c(Cc2ccc(C3CC3)cc2)cc1[C@@H]1O[C@H](CO)C(F)(F)[C@H](O)[C@H]1O :: 89.3
CCOc1cc(C)c(Cc2cc3ccccc3s2)cc1[C@@H]1O[C@H](CO)C(F)(F)[C@H](O)[C@H]1O :: 85.4
OC[C@H]1O[C@@H](c2cc(Cc3ccc(OCF)cc3)c(Cl)cc2O)[C@H](O)[C@@H](O)C1(F)F :: 90.2

Working through the 2 compounds below one at a time, give SGLT2 % Inh @ 0.3 μM for each.
1. CCc1cc(OC)c([C@@H]2O[C@H](CO)C(F)(F)[C@H](O)[C@H]2O)cc1Cc1ccc(OC(F)(F)F)cc1
2. OC[C@H]1O[C@@H](c2cc(Cc3ccc(OC(F)(F)F)cc3)c(Cl)cc2O)[C@H](O)[C@@H](O)C1(F)F

1. 70.5
2. 91.8

---

# STUDY SYSTEM: human SGLT1 (Homo sapiens)
# Construct: expressed in transfected cells
# TEST PROTOCOL: SGLT1 in vitro assay: Na-dependent 14C-AMG uptake in CHO-K1 cells stably expressing human SGLT1
# Assay type: cell-based
# ASSAY SETUP: @ 0.3 μM; CHO-K1 cells stably expressing human SGLT1; 14C-AMG uptake; read-out: SGLT1 % Inh @ 0.3 μM
OUTCOME MEASURE: inhibition at 0.3 µM (%)
One number for each entry, in %.

Sample answers from the record:
OC[C@H]1O[C@@H](c2cc(Cc3ccc(OCF)cc3)c(Cl)cc2O)[C@H](O)[C@@H](O)C1(F)F :: 65.2
CCc1ccc(Cc2cc([C@@H]3O[C@H](CO)C(F)(F)[C@H](O)[C@H]3O)c(O)cc2CC)cc1 :: 79.5
Cc1cc(O)c([C@@H]2O[C@H](CO)C(F)(F)[C@H](O)[C@H]2O)cc1Cc1ccc(OC(F)F)cc1 :: 49.1

Next compound, inhibition at 0.3 µM to be filled in.
Observed inhibition at 0.3 µM on human SGLT1 (Homo sapiens) for COc1cc(Cl)c(Cc2ccc(Cl)cc2)cc1[C@@H]1O[C@H](CO)C(F)(F)[C@H](O)[C@H]1O , please.
43.2

---

# STUDY SYSTEM: human SGLT1 (Homo sapiens, UniProt P13866)
# Construct: expressed in transfected cells
# Sequence (P13866 1-664): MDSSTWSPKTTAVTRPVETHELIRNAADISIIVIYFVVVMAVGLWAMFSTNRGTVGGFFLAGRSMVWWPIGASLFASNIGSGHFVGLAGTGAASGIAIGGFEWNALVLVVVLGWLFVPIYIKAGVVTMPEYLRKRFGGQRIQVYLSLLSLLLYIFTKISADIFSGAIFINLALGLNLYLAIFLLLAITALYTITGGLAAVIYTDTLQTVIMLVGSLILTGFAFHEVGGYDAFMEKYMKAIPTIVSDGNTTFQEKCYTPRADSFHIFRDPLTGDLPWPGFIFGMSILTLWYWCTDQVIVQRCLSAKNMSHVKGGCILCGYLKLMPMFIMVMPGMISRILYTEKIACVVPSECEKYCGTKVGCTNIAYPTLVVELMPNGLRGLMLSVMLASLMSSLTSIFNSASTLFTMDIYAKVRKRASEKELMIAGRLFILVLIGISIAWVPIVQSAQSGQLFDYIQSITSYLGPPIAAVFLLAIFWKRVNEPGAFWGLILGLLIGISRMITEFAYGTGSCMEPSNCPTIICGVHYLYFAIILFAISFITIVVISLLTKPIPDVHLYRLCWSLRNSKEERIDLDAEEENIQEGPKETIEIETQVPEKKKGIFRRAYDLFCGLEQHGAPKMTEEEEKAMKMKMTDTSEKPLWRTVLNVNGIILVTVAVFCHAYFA
# TEST PROTOCOL: SGLT1 in vitro assay: Na-dependent 14C-AMG uptake in CHO-K1 cells stably expressing human SGLT1
# Type: cell-based
# ASSAY SETUP: @ 0.3 μM; CHO-K1 cells stably expressing human SGLT1; 14C-AMG uptake
# Protocol: Biological Example 1: SGLT1 and SGLT2 In Vitro Assays The ability of the compounds of formula (I) of the present invention to treat an SGLT-mediated condition was determined using the following procedures: […] Inhibition of SGLT1 and SGLT2 activity was assessed in CHO K1 cells stably expressing either human SGLT1 or SGLT2, using the SGLT specific glucose analog methyl-glucopyranoside (Sigma Catalog No. M-9376). […] Plates were counted in a TopCount (Packard, Meriden, Conn.) […]
Lab note: cut-off is 30%. Strictly less in SGLT1 % Inh @ 0.3 μM is Y. Exactly 30% or more is N.

CCc1ccc(Cc2cc([C@@H]3O[C@H](CO)C(F)(F)[C@H](O)[C@H]3O)cc3c2OCC3)cc1 :: N
COc1cc(O)c([C@@H]2O[C@H](CO)C(F)(F)[C@H](O)[C@H]2O)cc1Cc1ccc(OC(F)(F)F)cc1 :: Y
OC[C@H]1O[C@@H](c2cc3c(c(Cc4ccc(C5CC5)cc4)c2)OCC3)[C@H](O)[C@@H](O)C1(F)F :: N
COc1cc(Cl)c(Cc2ccc([C@@H]3CCOC3)cc2)cc1[C@@H]1O[C@H](CO)C(F)(F)[C@H](O)[C@H]1O :: Y
COc1cc(O)c([C@@H]2O[C@H](CO)C(F)(F)[C@H](O)[C@H]2O)cc1Cc1cc2c(s1)CCN(C#N)C2 :: N

Please turn your attention to the following entry.
Strictly below 30% in SGLT1 % Inh @ 0.3 μM? OC[C@H]1O[C@@H](c2cc(Cc3ccc4c(c3)OCCO4)c(Cl)c3c2CCO3)[C@H](O)[C@@H](O)C1(F)F
Y
